system-tested: human melanin concentrating hormone type 2 receptor (MCH-2R) (human, UniProt Q969V1 1-340)
Sequence (Q969V1 whole entry, form in doubt): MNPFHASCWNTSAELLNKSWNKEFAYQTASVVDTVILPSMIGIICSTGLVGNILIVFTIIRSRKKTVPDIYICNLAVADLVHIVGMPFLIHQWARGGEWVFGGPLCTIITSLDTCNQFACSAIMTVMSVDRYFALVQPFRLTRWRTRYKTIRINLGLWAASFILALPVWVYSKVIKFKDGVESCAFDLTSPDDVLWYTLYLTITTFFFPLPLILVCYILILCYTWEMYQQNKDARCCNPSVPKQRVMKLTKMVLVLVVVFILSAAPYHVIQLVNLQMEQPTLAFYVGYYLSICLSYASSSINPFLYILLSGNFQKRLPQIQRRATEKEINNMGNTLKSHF
protocol-notes: cell-based or functional assay
Bridges are numbered along the chain shown (N, C = ends). [ ]: non-standard residue; d: D form. βAla = NCCC(=O)O
property-label: Activation % at 10 µM (aequorin functional assay) (%)

Ac-RCML[βAla]RVYRPC-NH2 (disulfide 2-11 (inferred)) [SEQ. ID. NO. 20] :: 92
Ac-RCMLGAVYRPC-NH2 (disulfide 2-11; SMILES CSCC[C@@H]1NC(=O)[C@@H](NC(=O)[C@H](CCCNC(=N)N)NC(C)=O)CSSC[C@@H](C(N)=O)NC(=O)[C@@H]2CCCN2C(=O)[C@H](CCCNC(=N)N)NC(=O)[C@H](Cc2ccc(O)cc2)NC(=O)[C@H](C(C)C)NC(=O)[C@H](C)NC(=O)CNC(=O)[C@H](CC(C)C)NC1=O, also called Ala^11) [SEQ. ID. NO. 23] :: 36
RCMLXRVYRPC (Sar^10 (sarcosine)) [SEQ. ID. NO. 6] :: 94

Source: patent US20040147432A1
